The measured values listed here are drawn from the supplement of paper PMC10724198.

# Tested on: Saccharomyces cerevisiae
# EXPERIMENT NOTES: protein stability index of tFT-peptide fusion (C-terminal peptide) (PSI (0-1 scale)); higher = more stable (slower turnover)
# MEASUREMENT PARAMETERS: genetic background: wild type; temperature: 30 C
READOUT TYPE: protein stability index
Write the value as a bare number.

Known results for sequences:
## Task // lookup protein stability index | system=Saccharomyces cerevisiae | key= `KINELGYMNLKM`
## Result 0.716

## Task Form field: protein stability index recorded for `VGACGWRGWCVV` with Saccharomyces cerevisiae (enter value)
## Result 0.664

***
## Task Record lookup: for Saccharomyces cerevisiae, what protein stability index belongs to `LPFLLPLVTPLP` ?
## Result 0.696

## Task Tell me reported protein stability index for `KSEKKKKRKEKK` , tested with Saccharomyces cerevisiae.
## Result 0.718

## Task State its protein stability index on Saccharomyces cerevisiae: `RLPHPHPVRSLP`
## Result 0.7

## Task API: value(readout=protein stability index, system=Saccharomyces cerevisiae) for record `SSWRVPLSVLPI`
## Result 0.67

## Task Request: protein stability index, test system Saccharomyces cerevisiae, entry `RDERDWDGSSWA`
## Result 0.708

## Task Return protein stability index measured with Saccharomyces cerevisiae given this sequence: `NFFLLFFFFLSF`
## Result 0.415

## Task Tell me reported protein stability index for `KKRTQKKKKYNR` , tested with Saccharomyces cerevisiae.
## Result 0.694

## Task Provide the documented protein stability index with Saccharomyces cerevisiae as the system for `VFSASCYSNSAR`
## Result 0.739

## Task Give recorded protein stability index with Saccharomyces cerevisiae for the following sequence: `PPNLYRGVQGPA`
## Result 0.682

## Task # get_value(readout= protein stability index, system= Saccharomyces cerevisiae) for `SPGPSPPSPIGP`
## Result 0.62

## Task Notebook entry, Saccharomyces cerevisiae assay: protein stability index of `KNKTLNKIIRLP` = ?
## Result 0.717

## Task Missing value: protein stability index, Saccharomyces cerevisiae, entry `LVRPGSTRDKRT` . Fill in?
## Result 0.736

## Task Lab note: need protein stability index for `SDLDFSRLHGSA` on Saccharomyces cerevisiae, anyone have it?
## Result 0.698

* * *

The following sequences are listed with their measured protein stability index values.
# Test system: Saccharomyces cerevisiae
# EXPERIMENT NOTES: protein stability index of tFT-peptide fusion (C-terminal peptide) (PSI (0-1 scale)); higher = more stable (slower turnover)
# MEASUREMENT PARAMETERS: genetic background: wild type; temperature: 30 C
The reply should be a number, written without any unit.

// solved cases for protein stability index follow
## Task Give the measured protein stability index of `SWPIWGSCGWRR` .
## Result 0.739

## Task I have this sequence here, `SPPLPHLPTPTP` , and I need its recorded protein stability index.
## Result 0.603

## Task // lookup protein stability index for `FNFFFSSVFLLV`
## Result 0.299

Others:
## Task Consider the sequence shown here: `AKYNISTMTGHT` What is its recorded protein stability index?
## Result 0.695

## Task Fill in the blank: the reported protein stability index of `WASKVGSYICAE` is ____.
## Result 0.671

## Task Fill in the blank: the reported protein stability index of `GEGGEGWGCFSF` is ____.
## Result 0.677

## Task Recorded protein stability index of `GILNIRKALDGK` , please.
## Result 0.648

## Task Name the reported protein stability index value associated with the sequence `CVRRKYIGGGEG`
## Result 0.673

## Task // query protein stability index value for entry `RRGCTKYGSYII`
## Result 0.696

## Task Given the sequence `SPTPPRMPLSLP` , what is its reported protein stability index?
## Result 0.677

* * *

# Tested on: Saccharomyces cerevisiae
# EXPERIMENT NOTES: protein stability index of tFT-peptide fusion (C-terminal peptide) (PSI (0-1 scale)); higher = more stable (slower turnover)
# MEASUREMENT PARAMETERS: genetic background: wild type; temperature: 37 C
READOUT TYPE: protein stability index
Lab note: jot down the number only; don't add units.

Answered cases to consult:
## Task Data request, read-out protein stability index, for `LHASCVYTILLV`
## Result 0.451

## Task Which protein stability index value belongs to `LPWLLLISFSYR` ?
## Result 0.378

## Task # lookup: protein stability index of `RCTFSFSFPFVL`
## Result 0.729

New cases:
## Task Could you tell me which protein stability index is on file for `MLFALLTIVFLG` ?
## Result 0.301

## Task Can you share its protein stability index? I mean this sequence: `LLLRSSRLRVLS`
## Result 0.149

## Task I have this sequence here, `VFMTLHCITIYK` , and I need its recorded protein stability index.
## Result 0.547

## Task Form field: reported protein stability index of `GPVRSPPSPTPR`
## Result 0.698

## Task Entry `YYVIFHLFSFLI` has what protein stability index?
## Result 0.493

## Task Returns the measured protein stability index for the input sequence. Input: `ALHGTVRNWQRQ`
## Result 0.535

## Task Which value of protein stability index has been reported for `YLYSSSPWILHG` in the records?
## Result 0.52

## Task Need protein stability index of `LVRFYGPLPPFP` , thanks.
## Result 0.729

## Task Param item = `VYCTFLFAYTLP` ; retrieve measured protein stability index.
## Result 0.59

## Task Look up protein stability index: `RLFVRIQLSLLF`
## Result 0.351

## Task Item `WVVVLFAYRGLR` has what recorded protein stability index?
## Result 0.559

## Task Query (sequence): `FFLDVMFLLFFF` ; field requested: protein stability index
## Result 0.513

* * *

# System: Saccharomyces cerevisiae
# EXPERIMENT NOTES: protein stability index of tFT-peptide fusion in deletion strain of DAS1 (PSI (0-1 scale)); higher = more stable (slower turnover)
Reported protein stability index by item:
Please state the value as a number alone, without comment.

## Task Find the measured protein stability index: item `PSLAASFWRHVG` , target or system Saccharomyces cerevisiae.
## Result 0.704

## Task Hello, I am looking for reported protein stability index with Saccharomyces cerevisiae for `VRGAVGGWNLVG` . Could you help?
## Result 0.679

## Task Missing value: protein stability index, Saccharomyces cerevisiae, entry `FSMRWTFRYWHN` . Fill in?
## Result 0.686

## Task Please tell me: protein stability index of `ARWRVGLWRMAS` , system Saccharomyces cerevisiae?
## Result 0.683

## Task What reported protein stability index corresponds to `KKHKKGQKQPIN` on Saccharomyces cerevisiae?
## Result 0.587

Further cases:
## Task Enter reported protein stability index observed with Saccharomyces cerevisiae for `KSMRWTFRYWVN`
## Result 0.578

## Task Item `FSMRWTFRYWVNT` with Saccharomyces cerevisiae - protein stability index?
## Result 0.539

## Task Query the reported protein stability index for Saccharomyces cerevisiae; item: `PDKRNHLIKLLND`
## Result 0.664

## Task # get_value(readout= protein stability index, system= Saccharomyces cerevisiae) for `CGSCGYKFRTNN`
## Result 0.687

## Task # returns recorded protein stability index (system: Saccharomyces cerevisiae) for `VHGAVGGWRLVG`
## Result 0.692

## Task // lookup protein stability index | system=Saccharomyces cerevisiae | key= `RLIQPLPRQFLN`
## Result 0.596

* * *

# Test system: Saccharomyces cerevisiae
# EXPERIMENT NOTES: protein stability index of tFT-peptide fusion (C-terminal peptide) (PSI (0-1 scale)); higher = more stable (slower turnover)
# MEASUREMENT PARAMETERS: genetic background: wild type; temperature: 30 C
Entry flag: Fulfilled if protein stability index reaches 0.7; Not fulfilled if it does not.

Before answering, review these 6 worked examples.
## Task Confirm if protein stability index reported for the sequence `PFTTSSQPDSPI` is 0.7 or above.
## Result Fulfilled

## Task For this sequence, is measured protein stability index 0.7 or higher? `VVFLLGPLVCGG`
## Result Not fulfilled

## Task Quick check, protein stability index >= 0.7? `CFFFFIFSLFGL`
## Result Not fulfilled

## Task protein stability index >= 0.7 for `GCRGWRSVGRGR` ?
## Result Not fulfilled

## Task Record `SYFVSGADSLIL` ; criterion: protein stability index no lower than 0.7. Met?
## Result Not fulfilled

## Task Is the recorded value of protein stability index equal to or greater than 0.7 for this sequence? `NDQASVLSFRSV`
## Result Not fulfilled

Others:
## Task For this sequence, is measured protein stability index 0.7 or higher? `CRRHPLTVVPIL`
## Result Not fulfilled

## Task Does protein stability index meet or surpass 0.7 for `ALCVPRTGPFFI` ?
## Result Fulfilled

## Task Item `YIHGFRLFGCVD` with protein stability index of 0.7 or above?
## Result Not fulfilled

## Task Is the recorded value of protein stability index equal to or greater than 0.7 for this sequence? `SDKNNRFGRVRV`
## Result Not fulfilled

## Task Hello, I need to know if `TEKRMIINIKIK` has measured protein stability index not below 0.7. Thanks!
## Result Fulfilled

## Task Check the entry `YGCSLFCPDCSI` : does protein stability index equal or exceed 0.7?
## Result Fulfilled

## Task Can `ENQGQSYVTMRY` be said to have protein stability index at or above 0.7?
## Result Fulfilled

## Task Dear colleague, could you confirm whether `PRALPSPPPPPP` has protein stability index at or above 0.7?
## Result Not fulfilled
